Test system: Staphylococcus aureus
Protocol Description: Antibacterial activity against Staphylococcus aureus assessed as reduction in microbial growth incubated for 24 hrs by microdilution method
Type: functional
Lab note: compare MIC with 40 µM, writing fulfilled if less and not fulfilled if equal or more.

In the record for "CC(C)=CCC[C@]1(C)C=Cc2c(ccc3c2O[C@H](c2ccc(O)c(O)c2)[C@@H](O)C3=O)O1" , is MIC less than 40 µM?
fulfilled

Then what about the molecule "CC(C)=CCC[C@]1(C)C=Cc2cc([C@H]3Oc4cc(O)ccc4C(=O)[C@@H]3O)cc(O)c2O1" ?
fulfilled

Then what about the molecule C=C(CO)[C@H]1Cc2c(ccc3c2O[C@@H]2COc4cc(OC)c(OC)cc4[C@]2(O)C3=O)O1 [DABINOL] ?
not fulfilled

Then what about the molecule CC(=O)O[C@H]1CC[C@]2(C)[C@H]3CC=C4[C@@H]5CC(C)(C)CC[C@]5(C(=O)O)CC[C@@]4(C)[C@]3(C)CC[C@H]2C1(C)C [ACETYL OLEANOLIC ACID] ?
not fulfilled

Then what about the molecule O=C(CC(O)c1ccc(O)cc1)c1ccc(O)cc1O (stereo not drawn) ?
fulfilled

Then what about the molecule "C=C(CO)[C@H]1Cc2c(ccc3c(=O)c4c(oc23)COc2cc(OC)c(OC)cc2-4)O1" ?
not fulfilled

More entries:
In the record for "CC(C)=CCC/C(C)=C/Cc1c(O)ccc2c(=O)c(O)c(-c3ccc(O)c(O)c3)oc12" , is MIC less than 40 µM?
not fulfilled
